Tested on: PPARg:RXRa IVT, anti-PPARg (NR concentration 270 nM, RXRa partner concentration 90 nM)
Assay: PBM binding z-score (relative to random genomic background probes); higher = stronger binding; sequences stand for … in GC…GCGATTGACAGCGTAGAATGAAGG
endpointName: PBM binding z-score

Field: example entries. Status: answers known.
{"sequenceChain": "AATACAGGGTCATCGTCGGCCAGAGTACGCACAG", "PBM binding z-score": 4.09}
{"sequenceChain": "ATATGTAGGTTACATCCGGGTCATTCGGGCTATG", "PBM binding z-score": 7.46}
{"sequenceChain": "TATAGTTGGTCAAAGGTCACACACTCGAAATGCG", "PBM binding z-score": 6.4}

# input What measured PBM binding z-score goes with "ACTATTAGTTGAGACGAAGGCAACCGATAGGTTG" ?
# output -0.28

# input What measured PBM binding z-score goes with "ATATGTAGGTTACATCCGGGTCGTTCAGGCTATG" ?
# output 7.22

# input What measured PBM binding z-score goes with "ATCGAAAGGTCGAGGTGATTATAGAGAAAGGGAA" ?
# output 2.16

# input What measured PBM binding z-score goes with "CCTTACGGGGCACTGACAGGTTATAGCATTTGGA" ?
# output 0.641

# input What measured PBM binding z-score goes with "ATCTCTAGGTAAAGATACTTCAGTGAATGCAAAT" ?
# output 1.32

# input What measured PBM binding z-score goes with "TAGCCTAGGTCGTGCGGGCCAGTATAGTGTCGGC" ?
# output 0.425

# input What measured PBM binding z-score goes with "GCTAGTTGATCAGTAAAAGGTCACACACCGGTCG" ?
# output 1.96

# input What measured PBM binding z-score goes with "GATAGCAGGCCATTTGGGTCACTCAATGACGGGC" ?
# output 3.5

# input What measured PBM binding z-score goes with "ACTAGTTGGTCAGCTGAGGTCAAACACAATTCGG" ?
# output 2.49

# input What measured PBM binding z-score goes with "TCGAGTAGGTTATCAATGGGGCATTCAGCTTTCT" ?
# output 1.84

###

System: RARg homodimer (NR concentration 270 nM)
Experiment: PBM binding z-score (relative to random genomic background probes); higher = stronger binding; sequences stand for … in GC…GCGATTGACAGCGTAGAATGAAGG
PBM binding z-score vs 3: at or above is label 1, below is label 0.

Worked set:
{"sequenceChain": "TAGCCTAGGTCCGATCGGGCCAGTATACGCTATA", "classLabel": "label 0"}
{"sequenceChain": "CCTCCTGGGCCAAAAAGGTCATTGATGCCGATAA", "classLabel": "label 1"}
{"sequenceChain": "AAATGTAGGTTATCGGGTCATTCAGTTTGCGCAT", "classLabel": "label 0"}
{"sequenceChain": "CCTAGTTGGTCAGGAGGTCACACGCCGGATATGA", "classLabel": "label 1"}
{"sequenceChain": "GGAACGAGGGCAAGTCGATAGCAGAGTTTGATGG", "classLabel": "label 0"}

Then this sequence:
# input Determine whether measured PBM binding z-score meets or exceeds 3 for "GCTGCTAGGTCAGGTTGATCAGCTAACGGGTACG"
# output label 1

###

Measured PBM binding z-score, listed per entry for reference.
Tested on: VDR homodimer (NR concentration 270 nM)
Experiment: PBM binding z-score (relative to random genomic background probes); higher = stronger binding; sequences stand for … in GC…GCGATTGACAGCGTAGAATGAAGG
Just the number, please.

Field: example entries. Status: answers known.
{"sequenceChain": "CGAACTGGGTCATTGACAGGACAGTGAATAGTAA", "assaySystem": "VDR homodimer (NR concentration 270 nM)", "PBM binding z-score": 1.05}
{"sequenceChain": "TAGCCTAGGTCATGTGCCAGTATACCACGCGAAC", "assaySystem": "VDR homodimer (NR concentration 270 nM)", "PBM binding z-score": 0.739}
{"sequenceChain": "TAGCCTAGGTCATTCCGGGGCCAGTATAGAAAGC", "assaySystem": "VDR homodimer (NR concentration 270 nM)", "PBM binding z-score": 1.46}

# input Quick check: PBM binding z-score on VDR homodimer (NR concentration 270 nM), item "CAGCCTAGATCAGGGCCAGTATAGGAGGAACGTT" ?
# output -0.384

# input Quick check: PBM binding z-score on VDR homodimer (NR concentration 270 nM), item "TCTGCTAGGTCAATGATGGTCAGCTAATCTGCTA" ?
# output -0.294

# input Quick check: PBM binding z-score on VDR homodimer (NR concentration 270 nM), item "CGAACTAGGTCAGAACAGGACAGAGAAGGATGAT" ?
# output 0.244

# input Quick check: PBM binding z-score on VDR homodimer (NR concentration 270 nM), item "CGTCCAAGGTCCTAGGAGGTCAGTGAAGACAGAT" ?
# output 1.06

# input Quick check: PBM binding z-score on VDR homodimer (NR concentration 270 nM), item "TGATATAGGTAAACAGGTGAAAGTCCGTAAGTTA" ?
# output 0.301

# input Quick check: PBM binding z-score on VDR homodimer (NR concentration 270 nM), item "CCAGCCAGGTGAAAGGTAACTCAGTCTGGTACGC" ?
# output -0.192

###

System: RARa:RXR (NR concentration 270 nM, RXRa partner concentration 90 nM)
Assay: PBM binding z-score (relative to random genomic background probes); higher = stronger binding; sequences stand for … in GC…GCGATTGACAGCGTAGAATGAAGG
// bucketize PBM binding z-score: low class = under 1, middle class = from 1 up to 2, high class = 2 and over

{"sequenceChain": "GCGACTGGGGCATCAGTAGGTTACCATAACTTAA", "classLabel": "low class"}

# input Band of "AATACAGGGTCACTAGGCCGGAGTAGGTACGAAT" ?
# output high class

# input Band of "CCTAGCAGGCCAATCTGGGTCACTTAAGGCTTGA" ?
# output middle class

# input Band of "ATCTCTAGGTAACGAGTTCAGTGAAAGAGAGGAC" ?
# output low class

# input Band of "CAAACTAGGTCACAGAGGCCAAAGTCCGTGCGTA" ?
# output high class

# input Band of "GCTCGGAGGACAAGGTCAGAGCATTGTCCGTAGA" ?
# output high class

# input Band of "TAGCCTAGGTCAGATCGGGCCAGTAGACGCTATA" ?
# output low class

# input Band of "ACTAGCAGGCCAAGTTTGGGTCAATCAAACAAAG" ?
# output middle class

###

Tested on: RARa homodimer (NR concentration 270 nM)
Assay: PBM binding z-score (relative to random genomic background probes); higher = stronger binding; sequences stand for … in GC…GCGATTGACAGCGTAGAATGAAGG
endpointName: PBM binding z-score
Just the number, please.

Field: example entries. Status: answers known.
{"sequenceChain": "ATATGTAGTTTACATCCGGGTCATTCAGGCTATG", "assaySystem": "RARa homodimer (NR concentration 270 nM)", "PBM binding z-score": 0.262}
{"sequenceChain": "ACTATTTGTTGACTTAGGGCAACCGATACGACGC", "assaySystem": "RARa homodimer (NR concentration 270 nM)", "PBM binding z-score": 0.997}
{"sequenceChain": "TCTTCTAGATCAATAGAGGTTAAGAAAGTGCGCT", "assaySystem": "RARa homodimer (NR concentration 270 nM)", "PBM binding z-score": 0.413}
{"sequenceChain": "CTACCAAGGTGAACAAGGTCTTTGATTACTATTC", "assaySystem": "RARa homodimer (NR concentration 270 nM)", "PBM binding z-score": 0.482}
{"sequenceChain": "CCGACTGGGGCAGAGAGGTTACCATACCATCCGG", "assaySystem": "RARa homodimer (NR concentration 270 nM)", "PBM binding z-score": 0.129}

Here is another sequence to look at.
# input What measured PBM binding z-score goes with "CTAGAAAGGTCGTGCTCAGGTGAGTATACCAAAC" ?
# output 0.32

###

Test system: PPARg DBDmut:RXRa IVT, anti-PPARg (DBD mutation: PPARg1 K132A/R137A, NR concentration 270 nM, RXRa partner concentration 90 nM)
Assay: PBM binding z-score (relative to random genomic background probes); higher = stronger binding; sequences stand for … in GC…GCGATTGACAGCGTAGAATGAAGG
Measured PBM binding z-score, listed per entry for reference.
Just the number, please.

Field: example entries. Status: answers known.
{"sequenceChain": "CCTACTGGGCCATTCAGAGGTCATTGACCATATG", "measured": 0.0159}
{"sequenceChain": "ATATGTAGGGTATCGGGTCATTCAGTTTGCGCAT", "measured": 2.46}
{"sequenceChain": "AGTCAAAGTTCATCTAGGTAACTTAAGATATGCT", "measured": 1.87}
{"sequenceChain": "GCTTGTAGCTCAAGGTTAAGAAAGACTAAGCTAA", "measured": -0.734}
{"sequenceChain": "TCATATAGGCAAACAGGTGAAAGTCCGTAAGTTA", "measured": 0.461}

# input What measured PBM binding z-score goes with "TTACCAAGGTGAGCTGAGGTCGTTGCTCCAACTC" ?
# output -0.398

# input What measured PBM binding z-score goes with "GTACCATGGTGAATAGGTCGTTGATGAGTAGGCG" ?
# output -0.162

# input What measured PBM binding z-score goes with "GATACAGGGTCAGCTAGAGGCCAGTGTATGGAAA" ?
# output 0.256

# input What measured PBM binding z-score goes with "GCTGCTAGGTCCACTGATGGTCAGCTAAAGCTCG" ?
# output -1.19

# input What measured PBM binding z-score goes with "CCTACTGGGCCATCAGGTCATTGCTATCAACGTT" ?
# output 0.318

# input What measured PBM binding z-score goes with "CCAGACAGGTGAGAAGGTAACTGAGCCTCGATTA" ?
# output -0.278

# input What measured PBM binding z-score goes with "CCTTACGGGTCACTGTCAGGTTATAGCATTTGGA" ?
# output 0.509

# input What measured PBM binding z-score goes with "ACTATTAGTTGAGACGAGGGCAAACGATAGGTTG" ?
# output 1.03

# input What measured PBM binding z-score goes with "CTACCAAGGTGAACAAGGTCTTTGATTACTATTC" ?
# output 0.785

# input What measured PBM binding z-score goes with "CCTAGCAGGCCCGGGTCACTCAAGCATTTCGCTT" ?
# output -1.26

# input What measured PBM binding z-score goes with "GCAGACAGGTGAGACGCAGGTAACTCAGGGTGGC" ?
# output -0.435

# input What measured PBM binding z-score goes with "CGAACTAGGTCAGAACAGGACCGTGAAGGATGAT" ?
# output 2.11

# input What measured PBM binding z-score goes with "CCTCGGAGGACAGAAGGTCAGAACTGTCCGCTTT" ?
# output -0.806

# input What measured PBM binding z-score goes with "ACTAGCAGACCAAGGGTCACTCAAGATTAGTCCG" ?
# output 0.151

# input What measured PBM binding z-score goes with "AGAACGAGGGCAATGAGTAGATAGCACGGGTGGC" ?
# output 0.5

# input What measured PBM binding z-score goes with "CCTGCTAGGTCATGGTCAGTTAATCTACAGTATG" ?
# output 0.767

# input What measured PBM binding z-score goes with "AGAACGAGCGCACGCTGAGTTGATAGCAGAGTAG" ?
# output -0.82
